experimental target: JAK1 (Homo sapiens)
Construct: JAK1 (aa 850-1154) and TYK2 (aa 871-1187) are expressed with an N-terminally fused GST-tag; GST (N)
Sequence (P23458 850-1154): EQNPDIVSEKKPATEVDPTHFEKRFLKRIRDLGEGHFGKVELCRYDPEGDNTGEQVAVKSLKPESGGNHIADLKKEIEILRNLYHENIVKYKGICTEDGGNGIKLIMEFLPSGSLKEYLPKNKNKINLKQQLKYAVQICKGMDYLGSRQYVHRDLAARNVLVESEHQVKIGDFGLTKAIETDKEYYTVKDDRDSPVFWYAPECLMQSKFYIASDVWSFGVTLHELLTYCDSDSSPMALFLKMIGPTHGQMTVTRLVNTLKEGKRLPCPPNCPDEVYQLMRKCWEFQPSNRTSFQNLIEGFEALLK
method notes: JAK1 kinase assay (HTRF, inhibition of phosphorylation of a synthetic peptide)
test context: catalytic domain aa 850-1154, GST-tag; 7 μM ATP (Km); read-out: JAK1 kinase inhibitory activity (EC50)
pEC50: −log10 of the molar value.
As shown below, each of these molecules has a reported pEC50 value.

[
  {
    "molecule": "Cc1cccc(CC(=O)N2CCN(c3ncnc4[nH]ccc34)CC3(CC3)C2)c1 [Example 262]",
    "experimental target": "JAK1 (Homo sapiens)",
    "pEC50": "6.00 to 7.00"
  },
  {
    "molecule": "COc1cc(S(N)(=O)=O)ccc1C(=O)N1CCN(c2ncnc3[nH]ccc23)CC2(CC2)C1 [Example 52]",
    "experimental target": "JAK1 (Homo sapiens)",
    "pEC50": "6.00 to 7.00"
  },
  {
    "molecule": "CN(CCC#N)C(=O)N1CCN(c2ncnc3[nH]ccc23)CC2(CC2)C1 [Example 220]",
    "experimental target": "JAK1 (Homo sapiens)",
    "pEC50": "6.00 to 7.00"
  },
  {
    "molecule": "O=C(c1cccc(Cl)c1)N1CCN(c2ncnc3[nH]ccc23)CC2(CC2)C1 [Example 186]",
    "experimental target": "JAK1 (Homo sapiens)",
    "pEC50": "6.00 to 7.00"
  }
]

====

experimental target: JAK3 (Homo sapiens)
Construct: All four purified enzymes contain only the catalytic domain; His (N)
Sequence (P52333 822-1111 limits assumed): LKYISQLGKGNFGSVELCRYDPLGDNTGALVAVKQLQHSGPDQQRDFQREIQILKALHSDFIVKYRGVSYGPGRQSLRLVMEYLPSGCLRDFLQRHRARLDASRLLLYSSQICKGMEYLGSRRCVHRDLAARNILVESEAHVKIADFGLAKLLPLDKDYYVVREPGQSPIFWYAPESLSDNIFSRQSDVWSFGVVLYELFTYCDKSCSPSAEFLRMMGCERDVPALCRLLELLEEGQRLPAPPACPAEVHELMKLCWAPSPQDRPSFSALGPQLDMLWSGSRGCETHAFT
method notes: JAK3 kinase assay (HTRF, inhibition of phosphorylation of a synthetic peptide)
test context: catalytic domain, His-tag; 2 μM ATP (Km); read-out: JAK3 kinase inhibitory activity (EC50)

[
  {
    "compound": "Nc1nc(N2CCN(Cc3ccccc3)CC3(CC3)C2)c2cc[nH]c2n1",
    "EC50": "> 1000 nM"
  },
  {
    "compound": "Cc1cncc(C(=O)N2CCCN(c3ncnc4[nH]ccc34)CC23CC3)n1",
    "EC50": "> 1000 nM"
  },
  {
    "compound": "CS(=O)(=O)Nc1ccc(C(=O)N2CCN(c3ncnc4[nH]ccc34)CC3(CC3)C2)cc1",
    "EC50": "100 to 1000 nM"
  },
  {
    "compound": "CC1CN(c2ncnc3[nH]ccc23)CC2(CC2)CN1C(=O)CC1CCCC1 (stereo not shown)",
    "EC50": "> 1000 nM"
  }
]

====

EC50 reference
experimental target: JAK3 (Homo sapiens)
Construct: All four purified enzymes contain only the catalytic domain; His (N)
method notes: JAK3 kinase assay (HTRF, inhibition of phosphorylation of a synthetic peptide)
test context: catalytic domain, His-tag; 2 μM ATP (Km); read-out: JAK3 kinase inhibitory activity (EC50)
test readout: EC50

[
  {
    "smi": "O=C(Cc1ccc(Cl)cc1Cl)N1CCN(c2ncnc3[nH]ccc23)CC2(CC2)C1",
    "observed measurement": "0.1 to 1 µM"
  },
  {
    "smi": "NS(=O)(=O)CCCC(=O)N1CCN(c2ncnc3[nH]ccc23)CC2(CC2)C1",
    "observed measurement": "< 0.1 µM"
  },
  {
    "smi": "COc1csc(C(=O)N2CCN(c3ncnc4[nH]ccc34)CC3(CC3)C2)c1",
    "observed measurement": "0.1 to 1 µM"
  },
  {
    "smi": "O=C(Cc1ccc(Cl)cc1)N1CCN(c2ncnc3[nH]ccc23)CC2(CC2)C1",
    "observed measurement": "0.1 to 1 µM"
  },
  {
    "smi": "CNS(=O)(=O)c1csc(C(=O)N2CCN(c3ncnc4[nH]ccc34)CC3(CC3)C2)c1C",
    "observed measurement": "0.1 to 1 µM"
  },
  {
    "smi": "N#CCC(=O)N1CCN(c2ncnc3[nH]ccc23)CC2(CC2)C1",
    "observed measurement": "< 0.1 µM"
  },
  {
    "smi": "O=C(c1cnon1)N1CCCN(c2ncnc3[nH]ccc23)CC12CC2",
    "observed measurement": "< 0.1 µM"
  },
  {
    "smi": "O=C(c1n[nH]c(Cl)n1)N1CCCN(c2ncnc3[nH]ccc23)CC12CC2",
    "observed measurement": "0.1 to 1 µM"
  }
]

====

experimental target: JAK2 (Homo sapiens)
Construct: All four purified enzymes contain only the catalytic domain; His (N)
Sequence (O60674 849-1124 limits assumed): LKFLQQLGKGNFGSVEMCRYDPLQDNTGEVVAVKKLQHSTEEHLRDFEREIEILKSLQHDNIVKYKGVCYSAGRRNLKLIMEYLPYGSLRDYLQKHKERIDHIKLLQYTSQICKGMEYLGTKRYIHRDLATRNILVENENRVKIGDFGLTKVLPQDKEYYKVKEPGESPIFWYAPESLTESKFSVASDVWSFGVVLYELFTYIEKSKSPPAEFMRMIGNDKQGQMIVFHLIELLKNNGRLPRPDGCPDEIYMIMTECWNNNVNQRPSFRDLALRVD
method notes: JAK2 kinase assay (HTRF, inhibition of phosphorylation of a synthetic peptide)
test context: catalytic domain, His-tag; 4 μM ATP (Km); read-out: JAK2 kinase inhibitory activity (EC50)

[
  {
    "compound": "Cc1nnc(C(=O)N2CCN(c3ncnc4[nH]ccc34)CC3(CC3)C2)o1 [Example 194]",
    "experimental target": "JAK2 (Homo sapiens)",
    "EC50": "0.1 to 1 µM"
  },
  {
    "compound": "N#CC1(C(=O)N2CCN(c3ncnc4[nH]ccc34)CC3(CC3)C2)CCCC1 [Example 40]",
    "experimental target": "JAK2 (Homo sapiens)",
    "EC50": "0.1 to 1 µM"
  },
  {
    "compound": "O=C(Cc1ccc(Cl)cc1)N1CCN(c2ncnc3[nH]ccc23)CC2(CC2)C1 [Example 125]",
    "experimental target": "JAK2 (Homo sapiens)",
    "EC50": "< 0.1 µM"
  },
  {
    "compound": "CC(=O)Nc1ccc(CC(=O)N2CCN(c3ncnc4[nH]ccc34)CC3(CC3)C2)cc1 [Example 276]",
    "experimental target": "JAK2 (Homo sapiens)",
    "EC50": "0.1 to 1 µM"
  },
  {
    "compound": "CN1CC(=O)N(CC(=O)N2CCN(c3ncnc4[nH]ccc34)CC3(CC3)C2)C1=O [Example 80]",
    "experimental target": "JAK2 (Homo sapiens)",
    "EC50": "< 0.1 µM"
  },
  {
    "compound": "O=C(c1cccnc1)N1CCCN(c2ncnc3[nH]ccc23)CC12CC2 [Example 128]",
    "experimental target": "JAK2 (Homo sapiens)",
    "EC50": "0.1 to 1 µM"
  },
  {
    "compound": "S=C(Nc1ccccc1)N1CCCN(c2ncnc3[nH]ccc23)CC12CC2 [Example 91]",
    "experimental target": "JAK2 (Homo sapiens)",
    "EC50": "< 0.1 µM"
  },
  {
    "compound": "Cc1ccc(S(=O)(=O)N2CC3(CC3)CN(c3ncnc4[nH]ccc34)CC2C)cc1 (stereo not drawn) [Example 98]",
    "experimental target": "JAK2 (Homo sapiens)",
    "EC50": "> 1 µM"
  },
  {
    "compound": "Cc1nocc1C(=O)N1CCN(c2ncnc3[nH]ccc23)CC2(CC2)C1 [Example 244]",
    "experimental target": "JAK2 (Homo sapiens)",
    "EC50": "0.1 to 1 µM"
  },
  {
    "compound": "CN1CCN(CC(=O)N2CCN(c3ncnc4[nH]ccc34)CC3(CC3)C2)C1=O [Example 82]",
    "experimental target": "JAK2 (Homo sapiens)",
    "EC50": "0.1 to 1 µM"
  },
  {
    "compound": "Cn1c(C(=O)N2CCN(c3ncnc4[nH]ccc34)CC3(CC3)C2)ccc1S(N)(=O)=O [Example 35]",
    "experimental target": "JAK2 (Homo sapiens)",
    "EC50": "0.1 to 1 µM"
  },
  {
    "compound": "Cc1cc(C(=O)N2CCN(c3ncnc4[nH]ccc34)CC3(CC3)C2)sn1 [Example 233]",
    "experimental target": "JAK2 (Homo sapiens)",
    "EC50": "0.1 to 1 µM"
  },
  {
    "compound": "O=C(c1cnco1)N1CCCN(c2ncnc3[nH]ccc23)CC12CC2 [Example 156]",
    "experimental target": "JAK2 (Homo sapiens)",
    "EC50": "0.1 to 1 µM"
  },
  {
    "compound": "Cc1cc(CC(=O)N2CCN(c3ncnc4[nH]ccc34)CC3(CC3)C2)no1 [Example 87]",
    "experimental target": "JAK2 (Homo sapiens)",
    "EC50": "< 0.1 µM"
  },
  {
    "compound": "CN(CC#N)C(=O)N1CCN(c2ncnc3[nH]ccc23)CC2(CC2)C1 [Example 218]",
    "experimental target": "JAK2 (Homo sapiens)",
    "EC50": "< 0.1 µM"
  },
  {
    "compound": "O=C(N1CCN(c2ncnc3[nH]ccc23)CC2(CC2)C1)C1(c2ccccc2)CC1 [Example 260]",
    "experimental target": "JAK2 (Homo sapiens)",
    "EC50": "0.1 to 1 µM"
  },
  {
    "compound": "O=C(Cc1ccc(Br)cc1)N1CCN(c2ncnc3[nH]ccc23)CC2(CC2)C1 [Example 264]",
    "experimental target": "JAK2 (Homo sapiens)",
    "EC50": "< 0.1 µM"
  },
  {
    "compound": "CN(CCC#N)C(=O)N1CCN(c2ncnc3[nH]ccc23)CC2(CC2)C1 [Example 220]",
    "experimental target": "JAK2 (Homo sapiens)",
    "EC50": "0.1 to 1 µM"
  }
]
